target-desc: ATP-dependent translocase ABCB1 (Homo sapiens)
Sequence (P08183 whole entry): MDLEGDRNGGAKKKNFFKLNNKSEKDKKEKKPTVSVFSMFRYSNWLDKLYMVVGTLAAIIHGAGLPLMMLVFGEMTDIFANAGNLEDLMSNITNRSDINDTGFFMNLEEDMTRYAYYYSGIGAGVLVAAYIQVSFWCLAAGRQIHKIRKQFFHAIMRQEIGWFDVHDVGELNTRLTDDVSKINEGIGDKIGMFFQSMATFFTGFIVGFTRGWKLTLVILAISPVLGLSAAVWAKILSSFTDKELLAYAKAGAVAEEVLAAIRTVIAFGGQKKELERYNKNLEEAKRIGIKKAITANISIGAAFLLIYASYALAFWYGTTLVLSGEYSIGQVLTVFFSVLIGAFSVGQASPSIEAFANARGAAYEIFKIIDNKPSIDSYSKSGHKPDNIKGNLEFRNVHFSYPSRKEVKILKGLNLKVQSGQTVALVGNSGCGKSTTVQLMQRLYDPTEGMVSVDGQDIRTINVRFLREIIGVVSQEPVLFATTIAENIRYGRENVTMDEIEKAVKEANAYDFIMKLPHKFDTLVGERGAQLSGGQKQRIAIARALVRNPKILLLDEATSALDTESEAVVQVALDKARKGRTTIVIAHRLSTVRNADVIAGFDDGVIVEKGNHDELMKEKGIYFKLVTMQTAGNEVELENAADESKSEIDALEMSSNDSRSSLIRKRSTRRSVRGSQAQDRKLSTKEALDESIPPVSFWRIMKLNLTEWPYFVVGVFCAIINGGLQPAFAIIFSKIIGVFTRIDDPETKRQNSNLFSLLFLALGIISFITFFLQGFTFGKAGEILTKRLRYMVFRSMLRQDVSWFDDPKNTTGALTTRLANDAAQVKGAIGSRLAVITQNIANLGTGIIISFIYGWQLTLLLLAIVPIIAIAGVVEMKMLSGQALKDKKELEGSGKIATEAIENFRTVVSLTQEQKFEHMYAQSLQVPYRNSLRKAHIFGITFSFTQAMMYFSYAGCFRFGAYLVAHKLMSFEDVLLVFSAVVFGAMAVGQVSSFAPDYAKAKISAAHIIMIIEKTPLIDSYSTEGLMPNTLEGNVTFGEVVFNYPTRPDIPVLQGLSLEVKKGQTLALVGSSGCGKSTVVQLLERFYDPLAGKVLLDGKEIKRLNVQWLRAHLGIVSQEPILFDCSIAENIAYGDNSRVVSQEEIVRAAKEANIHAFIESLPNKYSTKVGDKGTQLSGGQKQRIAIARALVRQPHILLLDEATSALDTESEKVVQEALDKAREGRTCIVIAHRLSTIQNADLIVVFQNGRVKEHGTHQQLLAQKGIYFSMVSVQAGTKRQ
procedure-text: Inhibition of MDR1 in human A2780adr cells assessed as calcein AM accumulation at 10 uM by fluorimetry
Type: cell-based
experimental-parameters: a2780 adr
endpoint-label: inhibition (INH)

Check out these entries, answers already filled in.
Asked: Given the entry "O=C(/C=C/c1ccc(Cl)cc1)c1ccc2ccccc2c1O" , report its measured inhibition (INH).
Given back: Active

Asked: What does the data say about its inhibition (INH)? Entry: "COc1ccc(/C=C/C(=O)c2ccc(OC)c(OC)c2)cc1OC"
Given back: Active

Asked: Which value of inhibition (INH) has been reported for "COc1ccc(C(=O)/C=C/c2ccc(Cl)cc2)c(OC)c1" in the records?
Given back: Active

Asked: Dear colleague, I am looking for the recorded inhibition (INH) of the following compound: "O=C(/C=C/c1ccccc1)c1ccc2ccccc2c1O"
Given back: Active

Asked: Record request: inhibition (INH) value, item "COc1ccc(/C=C/C(=O)c2ccc(O)cc2O)cc1OC"
Given back: Active

Asked: # query: inhibition (INH) of entry O=C(/C=C/c1ccccc1)c1ccc(O)cc1O [2',4'-DIHYDROXYCHALCONE]
Given back: Active

Asked: Reported inhibition (INH), compound "COc1ccc(C(=O)/C=C/c2ccccc2Cl)cc1OC" : ____
Given back: Active

Asked: I have this compound here, "O=C(/C=C/c1ccccc1Cl)c1ccc(O)cc1O" , and I need its recorded inhibition (INH).
Given back: Active

Asked: Using the record for "COc1ccc(/C=C/C(=O)c2ccc(OC)cc2O)cc1" , report its inhibition (INH).
Given back: Active

Asked: Give its inhibition (INH) value. Item: "O=C(/C=C/c1ccccc1Cl)c1ccccc1"
Given back: Active

Next:
Asked: What measured inhibition (INH) goes with "O=C(/C=C/c1ccc(Cl)c(Cl)c1)c1c(O)ccc2ccccc12" ?
Given back: Active

Asked: Field request: inhibition (INH) | item: "COc1cc(O)c(C(=O)/C=C/c2ccc(OC)c(OC)c2)c(OC)c1"
Given back: Active
